Target: chromaffin granule amine transport protein (Rattus norvegicus, UniProt Q01818)
Sequence (Q01818 1-521): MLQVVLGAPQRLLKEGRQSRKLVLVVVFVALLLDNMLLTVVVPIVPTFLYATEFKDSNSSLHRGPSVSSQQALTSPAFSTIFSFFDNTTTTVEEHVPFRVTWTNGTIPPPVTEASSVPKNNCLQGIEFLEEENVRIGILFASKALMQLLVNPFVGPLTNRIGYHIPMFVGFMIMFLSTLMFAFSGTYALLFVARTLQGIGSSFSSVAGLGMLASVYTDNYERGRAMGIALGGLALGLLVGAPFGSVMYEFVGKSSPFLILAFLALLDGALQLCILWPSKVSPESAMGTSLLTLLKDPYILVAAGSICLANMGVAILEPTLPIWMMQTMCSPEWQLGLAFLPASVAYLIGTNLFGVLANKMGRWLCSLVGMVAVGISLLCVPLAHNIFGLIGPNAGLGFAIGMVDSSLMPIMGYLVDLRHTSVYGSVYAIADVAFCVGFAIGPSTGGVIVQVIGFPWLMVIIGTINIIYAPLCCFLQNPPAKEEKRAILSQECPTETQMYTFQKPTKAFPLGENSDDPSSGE
Experiment: cell-based
Format: cell-based
Conditions: dose required to inhibit maximal uptake by 50%, estimated from fluorescence data; read-out: Ki (est)
Experimental Readout: Ki

# Compound, Value Measured
records = [
    ("COc1cc2c(cc1OC)C1CC(=O)C(CC(C)C)CN1CC2 (stereo not drawn)", "100 µM"),
    ("COC(=O)[C@H]1[C@H]2C[C@@H]3c4[nH]c5cc(OC)ccc5c4CCN3C[C@H]2C[C@@H](OC(=O)c2cc(OC)c(OC)c(OC)c2)[C@@H]1OC", "0.025 µM"),
    ("CNCCCN1c2ccccc2CCc2ccccc21", "500 µM"),
]
